Assay: Particle size and stability of amphiphilic carrier molecules by dynamic light scattering
Format: physicochemical
Settings: PBS pH 7.4, 0.5 mg/mL, peptide-based linear carriers
Non-standard residues stand in square brackets, D forms with d. Primed or numbered codes have the meaning given here. No end group written: not given here. Lys(N3)′ = its azide, alkyne or alkene has reacted where a group follows in round brackets; DBCO′ = not defined here; F′ = aminophenylalanine; Ahx = NCCCCCC(=O)O
readout.label: Size (diameter, nm)
Reply numerically in nm, unit not repeated.

Q: Size (diameter, nm) lookup needed for KKKKKKK-SGSGSGSGSGSGSGSGSGSGSGSG-(Lys(N3-DBCO))-Ahx-(F′)5: peptide-based linear amphiphilic carrier molecule C-B-L-H , thanks.
Result: 477

Q: Next substance up: KKK-SGSGSGSGSGSGSGSGSGSGSGSG-(Lys(N3-DBCO))-Ahx-(F′)5: peptide-based linear amphiphilic carrier molecule C-B-L-H (chain 1 KKKSGSGSGSGSGSGSGSGSGSGSGSG[Lys(N3)′](DBCO′)[Ahx]; chain 2 [F′][F′][F′][F′][F′]; also: chain 2 (F′)5 follows Ahx of chain 1)
Result: 1013

Q: Also, KKK-SGSGSGSGSGSGSGSGSGSGSGSG-(Lys(N3-DBCO))-Ahx-(F′)20: peptide-based linear amphiphilic carrier molecule C-B-L-H (chain 1 KKKSGSGSGSGSGSGSGSGSGSGSGSG[Lys(N3)′](DBCO′)[Ahx]; chain 2 [F′][F′][F′][F′][F′][F′][F′][F′][F′][F′][F′][F′][F′][F′][F′][F′][F′][F′][F′][F′]; also: chain 2 (F′)20 follows Ahx of chain 1) please.
Result: 1521

Q: What do we get for KKK-SGSGSGSGSGSGSGSGSGSGSGSG-(Lys(N3-DBCO))-Ahx-(F′)10: peptide-based linear amphiphilic carrier molecule C-B-L-H (chain 1 KKKSGSGSGSGSGSGSGSGSGSGSGSG[Lys(N3)′](DBCO′)[Ahx]; chain 2 [F′][F′][F′][F′][F′][F′][F′][F′][F′][F′]; also: chain 2 (F′)10 follows Ahx of chain 1) ?
Result: 3839

Q: // repeat for KKK-SGSGSGSGSGSGSGSGSGSGSGSG-(Lys(N3-DBCO))-Bis(Ahx-F′10)2: peptide-based linear amphiphilic carrier molecule C-B-L-H (chain 1 KKKSGSGSGSGSGSGSGSGSGSGSGSG[Lys(N3)′](DBCO′)[Ahx]; chain 2 [F′][F′][F′][F′][F′][F′][F′][F′][F′][F′]; also: two Ahx-F′10 arms, branching not given here, one arm shown) and report
Result: 2683

Q: Moving on to the next substance: KKKKKKK-SGSGSGSGSGSGSGSGSGSGSGSG-(Lys(N3-DBCO))-Ahx-(F′)20: peptide-based linear amphiphilic carrier molecule C-B-L-H
Result: 32
